IC50 values for the compounds below.
System: HL60
Test: In vitro antiproliferative MTT assay in HL60, 24 h endpoint
Format: cell-based, human
Details: Homo sapiens, HL-60, HL60, 24 h post-treatment, triplicate determination, read-out: IC50 (μM) ± S.D. in HL60

COMPOUND STRUCTURE: Oc1cccc(O)c1-c1c2ccc(=[N+]3CCCCC3)cc-2oc2cc(N3CCCCC3)ccc12
IC50: 2.91 µM

Please find the next compound below.
For the record O=C(O)COc1cccc(OCC(=O)O)c1-c1c2ccc(=[N+]3CCCCC3)cc-2oc2cc(N3CCCCC3)ccc12 , what value of IC50 is listed for HL60? > 100 µM

---

Tested on: MCF-7
Test: In vitro anti-proliferative MTT assay, 48 h, MCF-7
Type: cell-based, human
Conditions: MCF-7, breast, 48 h post-treatment, read-out: IC50 (μM) ± S.D., MCF-7
PROPERTY: IC50 (µM)
Answer format: numeric, µM implied, no suffix.

Before answering, review these 2 worked examples.
COMPOUND: COC(=O)c1ccccc1-c1c2ccc(=N)cc-2oc2cc(N)ccc12.Cl [Rh123, rhodamine 123, reference compound]
UNIT TEXT: µM
IC50: 5.61
//
COMPOUND: Ic1ccc(-c2c3ccc(=[N+]4CCCCC4)cc-3oc3cc(N4CCCCC4)ccc23)cc1.[Cl-]
UNIT TEXT: µM
IC50: 0.39

Fill in the blank: the reported IC50 of [Cl-].c1csc(-c2c3ccc(=[N+]4CCCCC4)cc-3oc3cc(N4CCCCC4)ccc23)c1 is ____. 0.27
